B1: ZNF649 (parent)
chain: EHERAHRGEKPHGCSLCGKAFYKR

Variants of: B1
Assay: protein stability index of a GFP-peptide fusion (GPS, HEK-293T) (PSI 1-6); higher = more stable;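 also: lentivirally expressed fusions sorted by FACS into six bins by GFP to DsRed ratio, PSI derived from sequencing read proportions per bin multiplied by bin number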
Details: c terminus: a fixed tail appended
Is protein stability index at least 2? Then Y. If not, N.

Worked cases, answers included:
# mutation label, label class
measured = [
    ("F21H", "Y"),
    ("A5L", "Y"),
    ("H2G", "N"),
]

State whether the measured protein stability index reaches 2, counting equality as reaching it, for R24I
Y

State whether the measured protein stability index reaches 2, counting equality as reaching it, for R4M
Y

State whether the measured protein stability index reaches 2, counting equality as reaching it, for G8K
Y

State whether the measured protein stability index reaches 2, counting equality as reaching it, for K19Y
Y

State whether the measured protein stability index reaches 2, counting equality as reaching it, for K23C
Y

State whether the measured protein stability index reaches 2, counting equality as reaching it, for H12M
Y

State whether the measured protein stability index reaches 2, counting equality as reaching it, for G18W
N

State whether the measured protein stability index reaches 2, counting equality as reaching it, for E1P
Y

Data origin: the supplement of paper PMC10567573
